Test system: cholesterol biosynthesis in HepG2 cells
test.name: Inhibition of cholesterol biosynthesis in HepG2 cells (3H2O incorporation into cholesterol)
Assay type: cell-based
condition.details: Homo sapiens, HepG2, Test I
Below, each entry is listed with its recorded pIC50.
Field pIC50 (float): negative decimal logarithm of the concentration in molar.

| molecule | pIC50 |
| --- | --- |
| CCC(C)C(=O)OC1CC(C)C=C2C=CC(C)C(CCC3CC(O)CC(=O)O3)C21 (centres unmarked) [mevinolin, reference compound] | 7.70 |

Exercise: Please look up its pIC50: `CC[C@H](C)C(=O)O[C@H]1CCC=C2C=CC[C@H](CC[C@@H]3C[C@@H](O)CC(=O)O3)[C@]21C`
Key: 7.33

---

System: cholesterol biosynthesis in HepG2 cells
test.name: Inhibition of cholesterol biosynthesis in HepG2 cells (3H2O incorporation into cholesterol)
Format: cell-based
condition.details: Homo sapiens, HepG2, Test II
Below, each entry is listed with its recorded pIC50.
Field pIC50 (float): negative decimal logarithm of the concentration in molar.

| molecule | assay.value |
| --- | --- |
| CCC(C)C(=O)OC1CC(C)C=C2C=CC(C)C(CCC3CC(O)CC(=O)O3)C21 (centres unmarked) [mevinolin, reference compound] | 6.19 |

Exercise: Please look up its pIC50: CC[C@H](C)C(=O)O[C@H]1CCC=C2C=CC[C@H](CC[C@@H]3C[C@@H](O)CC(=O)O3)[C@]21C [Compound A]
Key: 5.42
